Data provenance: patent US6472526B1

# target: Ras farnesyl transferase (Homo sapiens, UniProt P49354+P49356)
# Construct: made in house
# assay_info: In vitro inhibitory activity for Ras farnesyl transferase, K-Ras substrate
# Assay type: biochemical
# reported_conditions: in vitro farnesyl transferase assay, K-Ras; read-out: K-Ras IC50
Reported values of IC50 for individual entries
assay_endpoint: IC50

> print(dat)
                                     smiles  assay.endpoint  experimental.value
1  O=C(c1ccc(F)cc1)c1cn(Cc2c[nH]cn2)cc1-c1cccc2ccccc12            IC50     100 to 10000 nM
2  O=C(c1cccs1)c1cn(Cc2c[nH]cn2)cc1-c1cccc2ccccc12            IC50     100 to 10000 nM
3  O=C(c1ccc(Cl)cc1Cl)c1cn(Cc2c[nH]cn2)cc1-c1cccc2ccccc12            IC50     100 to 10000 nM
4  CSCc1ccc(C(=O)c2cn(Cc3c[nH]cn3)cc2-c2cccc3ccccc23)cc1            IC50     100 to 10000 nM
5  N#Cc1ccc(Cn2cncc2Cn2cc(C(=O)c3ccsc3)c(-c3cccc4ccccc34)c2)cc1            IC50        10 to 100 nM
6  O=C(NCCO)c1cn(Cc2c[nH]cn2)cc1-c1cccc2ccccc12            IC50     100 to 10000 nM
